# Test system: HOP-62 NSCLC
# experiment: NCI tumour cell line growth inhibition, 48 h
reported_endpoint: TGI

Take a look at these entries with their results.
compound | reported_endpoint | result
COc1cc([C@@H]2c3cc4c(cc3[C@H](OC3OC5COC(c6ccccc6)OC5C(O)C3O)[C@H]3COC(=O)[C@H]23)OCO4)cc(OC)c1OC (some centres not stated) | TGI | 5.32 µM
COc1cc2c(cc1OCCCC(=O)Nc1cc(C(=O)Nc3cc(C(=O)Nc4cc(C(=O)NCCCN(C)C)n(C)c4)n(C)c3)n(C)c1)N=C[C@@H]1CCCN1C2=O | TGI | 9.83 µM
COCn1c2ccc(OC(C)=O)cc2c2c(=O)oc(C)nc21 | TGI | > 100 µM
CCCSc1cc(Cl)c(C)cc1S(=O)(=O)n1ccnc1OCCCN(C)C | TGI | > 100 µM

Item O=P(O)(O)OC1C(OP(=O)(O)O)C(OP(=O)(O)O)C(OP(=O)(O)O)C(OP(=O)(O)O)C1OP(=O)(O)O (configuration not stated) has what recorded TGI?
> 2000 µM

Item COc1ccc(/C=N\N2CC(=O)N3C4C=CC(CC4)N3C2=O)cc1 (configuration not stated) has what recorded TGI?
> 100 µM

Item COc1ccc2c(c1)OCC1(O)Cc3ccccc3OC21 (configuration not stated) has what recorded TGI?
> 100 µM

Item CCN(CC)CCn1c(=N)n(CC(O)c2ccc(Cl)c(Cl)c2)c2ccccc21 (configuration not stated) has what recorded TGI?
24.8 µM

Item CCCC1NC(C#N)(C#N)C(CCC)NC1(C#N)C#N (configuration not stated) has what recorded TGI?
> 100 µM

====

# Tested on: LOX IMVI melanoma
# experiment: NCI tumour cell line growth inhibition, 48 h
Please use condition met whenever TGI is not below 4 µM, and condition not met whenever it is.

Some solved entries appear below for comparison.
compound | study_system | qualitative_label
COc1cc(/C=C2\C[C@H]3[C@@H]4CC=C5C[C@@H](N6CCCC6)CC[C@]5(C)[C@H]4CC[C@]3(C)[C@H]2O)cc(OC)c1OC | LOX IMVI melanoma | condition met
COc1cc(Oc2nc3ccccc3nc2C(=O)O)cc(OC)c1OC | LOX IMVI melanoma | condition met

Test whether the compound O=C1CCCC1C(=O)Nc1ccc2ccccc2c1 (stereo not given) records TGI of 4 µM or higher.
condition met

====

# System: OVCAR-4 ovarian
# experiment: NCI tumour cell line growth inhibition, 48 h
Documented TGI across a set of compounds

compound | TGI
CC/C=C/[C@@H]1C=C[C@@H]2CCC[C@H]2[C@@H]1CC[C@H](O)[C@H](C)N | 4.88 µM

Item C(=N\Nc1ncc(-c2cc3cc4c(cc3o2)OCO4)s1)/c1c[nH]c2ccccc12 has what recorded TGI?
4.1 µM

Item Brc1ccc2c(-c3nc(-c4c[nH]c5ccccc45)cs3)c[nH]c2c1 has what recorded TGI?
> 100 µM

Item Cc1nc2c(cnn2-c2ccnc3c(C(F)(F)F)cccc23)c(=O)o1 has what recorded TGI?
> 100 µM

Item COc1c(-c2cc(C)c(Cl)c(=O)[nH]2)c(O)c(OC)c2occc12 has what recorded TGI?
> 100 µM

Item C=C1C(=O)OC2C1C(OC(=O)/C(=C/C)COC(C)=O)CC1(CO1)C1C(OC(=O)/C(=C/C)CO)C=C(C)C21 (stereo not given) has what recorded TGI?
7.53 µM

Item O=C(c1ccccc1)c1nnn(Cc2cccc(Cl)c2)c1C(=O)c1ccccc1 has what recorded TGI?
> 100 µM
